The reported numbers originate from patent US12239629B2.

# Test system: SARS-CoV2
# test: Drug pretreatment of Vero E6 cells prior to SARS-CoV2 infection, indirect immunofluorescence
# Type: cell-based
# cond: pretreatment 18-24 hours prior to virus infection, 40 μM
Structures can show the parent of a compound that is named as a salt.
property-measured: reduced infectivity
Your reply should be a number followed by the unit it is expressed in.

Observe how each entry below is paired with its result.
| compound | target-system | property-measured | val |
| --- | --- | --- | --- |
| CC(C)CN(C[C@H](OP(=O)(O)O)[C@H](Cc1ccccc1)NC(=O)O[C@H]1CCOC1)S(=O)(=O)c1ccc(N)cc1 [fosamprenavir calcium, Fosamprenavir Calcium] | SARS-CoV2 | reduced infectivity | 91% |
| O=C1Nc2ccc(Cl)cc2[C@@](C#CC2CC2)(C(F)(F)F)O1 [efavirenz, Efavirenz] | SARS-CoV2 | reduced infectivity | 89% |
| CCN(CCO)CCCC(C)Nc1ccnc2cc(Cl)ccc12 (stereo not shown) [hydroxychloroquine sulfate] | SARS-CoV2 | reduced infectivity | 92% |

### Prompt State the recorded reduced infectivity for this entry: CC(C)(C)NC(=O)[C@@H]1C[C@@H]2CCCC[C@@H]2CN1C[C@@H](O)[C@H](Cc1ccccc1)NC(=O)[C@H](CC(N)=O)NC(=O)c1ccc2ccccc2n1 [saquinavir, Saquinavir]
### Response 47%

---

Listed here are compounds together with their documented pIC50.
# Test system: SARS-CoV2
# test: Drug added to Vero E6 cells immediately after SARS-CoV2 adsorption, indirect immunofluorescence after 24 hours
# Assay type: cell-based
# cond: Severe acute respiratory syndrome coronavirus 2, Vero C1008, read-out: half-maximal inhibitory effect, drug added immediately after virus adsorption, Vero E6 cells, estimated
pIC50 here is simply -log10 of the concentration when that concentration is written in mol/L.

| compound | target-system | val |
| --- | --- | --- |
| CC(C)(C)NC(=O)[C@@H]1C[C@@H]2CCCC[C@@H]2CN1C[C@@H](O)[C@H](Cc1ccccc1)NC(=O)[C@H](CC(N)=O)NC(=O)c1ccc2ccccc2n1 [saquinavir, Saquinavir] | SARS-CoV2 | 4.02 |
| C[C@H]1O[C@@H](O[C@H]2[C@@H](O)C[C@H](O[C@H]3[C@@H](O)C[C@H](O[C@H]4CC[C@@]5(C)[C@H](CC[C@@H]6[C@@H]5C[C@@H](O)[C@]5(C)[C@@H](C7=CC(=O)OC7)CC[C@]65O)C4)O[C@@H]3C)O[C@@H]2C)C[C@H](O)[C@@H]1O [digoxin] | SARS-CoV2 | 6.77 |

### Prompt Missing value: pIC50, SARS-CoV2, entry O=C1Nc2ccc(Cl)cc2[C@@](C#CC2CC2)(C(F)(F)F)O1 [efavirenz, Efavirenz] . Fill in?
### Response 4.29
